This collection of values is drawn from the RepoRT retention time repository (doi:10.1021/acs.analchem.2c02893).

- METHOD: RP, Thermo Scientific Acclaim RSLC 120 C18, 100 × 2.1 mm, 2.2 µm, 30 °C, 0.2 mL/min, estimated dead time 1.1 min; A: 90% water + 10% methanol + 0.01% formic acid + 5 mM ammonium formate, pH 3.61; B: methanol + 0.01% formic acid + 5 mM ammonium formate, pH 3.61; gradient (min/%B) 0/1 1/1 2/39 13/99.9 15/99.9 15.1/1 20.1/1
- MEASUREMENT CONTEXT: stereoisomer not certain

{"COMPOUND": "CN1C(=O)CC(C)(c2ccccc2)C1=O (centres undefined) [Methsuximide]", "LC retention time / min": 6.71}
{"COMPOUND": "NS(=O)(=O)c1ccc(N2CCCCS2(=O)=O)cc1", "LC retention time / min": 4.11}
{"COMPOUND": "Cn1c(=O)c2[nH]cnc2n(C)c1=O", "LC retention time / min": 3.93}
{"COMPOUND": "CC(=O)N(CC(O)CN(C(C)=O)c1c(I)c(C(=O)NCC(O)CO)c(I)c(C(=O)NCC(O)CO)c1I)c1c(I)c(C(=O)NCC(O)CO)c(I)c(C(=O)NCC(O)CO)c1I (centres undefined)", "LC retention time / min": 3.56}
